- experimental system: human EP3 receptor (Homo sapiens, UniProt P43115)
- Sequence (P43115 1-390): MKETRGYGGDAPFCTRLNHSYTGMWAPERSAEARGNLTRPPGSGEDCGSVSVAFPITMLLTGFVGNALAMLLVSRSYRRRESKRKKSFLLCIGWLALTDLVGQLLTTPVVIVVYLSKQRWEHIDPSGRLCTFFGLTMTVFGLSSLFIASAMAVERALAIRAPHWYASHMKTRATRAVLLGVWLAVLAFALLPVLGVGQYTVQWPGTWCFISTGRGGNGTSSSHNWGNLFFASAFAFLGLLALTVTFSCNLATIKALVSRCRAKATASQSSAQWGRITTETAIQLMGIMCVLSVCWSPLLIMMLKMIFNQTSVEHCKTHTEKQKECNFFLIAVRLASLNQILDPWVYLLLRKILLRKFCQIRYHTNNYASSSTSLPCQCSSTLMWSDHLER
- assay explanation: Cellular in vitro assay for determining EP3 receptor activity (human EP3 cell line, sulprostone-stimulated calcium luminescence)
- applied conditions: CHO cells expressing human EP3 and mitochondrial Clytin; antagonist mode, sulprostone at EC50; read-out: EP3 CHO mtCLY ANTAG IC50

# compound, IC50
data = [
    ("Cc1ccc(-c2cn3nc(C(=O)N[C@@H](c4ccc(F)cc4)C(C)(C)O)c(C4CC4)c3c(=O)[nH]2)cc1F [Example 1-158]", "0.983 nM"),
    ("Cc1ccc(-c2cn3nc(C(=O)N[C@H](C)C4CC4)c(C4CC4)c3c(=O)[nH]2)cc1C [6-438]", "0.55 nM"),
    ("Cc1ccc(-c2[nH]c(=O)c3c(C(F)(F)F)c(C(=O)NCCn4ccc(C5CC5)n4)nn3c2C)cc1C [Example 1-130]", "2.55 nM"),
    ("COc1ccc(C(C)NC(=O)c2nn3c(C)c(-c4ccc5ccccc5c4)[nH]c(=O)c3c2C)cn1 (stereo not drawn) [Example 3-38]", "1.85 nM"),
    ("Cc1cc(-c2cn3nc(C(=O)NCC(O)C(F)(F)F)c(C4CC4)c3c(=O)[nH]2)ccc1Cl (racemic) [6-312]", "1.3 nM"),
    ("Cc1cc(-c2cn3nc(C(=O)NC(C)C4CCC4)c(C4CC4)c3c(=O)[nH]2)ccc1Cl (single isomer, unassigned) [6-300]", "3.3 nM"),
]

---

- experimental system: human EP3 receptor (Homo sapiens)
- assay explanation: Cellular in vitro assay for determining EP3 receptor activity (human EP3 cell line, sulprostone-stimulated calcium luminescence)
- applied conditions: CHO cells expressing human EP3 and mitochondrial Clytin; antagonist mode, sulprostone at EC50; read-out: EP3 CHO mtCLY ANTAG IC50
pIC50: −log10 of the molar value.
measurement name: pIC50

# molecule, experimental system, measurement name, measured number
rows = [
    ("CC(NC(=O)c1cc2c(=O)[nH]c(-c3ccc4ccccc4c3)cn2n1)c1ccc(O)cc1 (single isomer, unassigned) [6-543]", "human EP3 receptor (Homo sapiens)", "pIC50", 8.48),
    ("Cc1cnn(C(CNC(=O)c2cc3c(=O)[nH]c(-c4ccc5ccccc5c4)cn3n2)C(C)C)c1 (centres unmarked)", "human EP3 receptor (Homo sapiens)", "pIC50", 8.33),
    ("Cc1ccc(-c2cn3nc(C(=O)NCC(O)C(F)(F)F)c(C4CC4)c3c(=O)[nH]2)cc1C(F)(F)F (single isomer, unassigned) [6-244]", "human EP3 receptor (Homo sapiens)", "pIC50", 8.26),
    ("Cc1ccc(-c2cn3nc(C(=O)NCC(O)C(F)(F)F)c(C4CC4)c3c(=O)[nH]2)cc1C (single isomer, unassigned) [6-436]", "human EP3 receptor (Homo sapiens)", "pIC50", 9.08),
    ("Cc1cc(-c2cn3nc(C(=O)NC(C)C4CCC4)c(C(F)(F)F)c3c(=O)[nH]2)ccc1Cl (racemic) [6-222]", "human EP3 receptor (Homo sapiens)", "pIC50", 8.95),
    ("Cc1cc(-c2cn3nc(C(=O)NCC(O)C(F)(F)F)c(C4CC4)c3c(=O)[nH]2)ccc1Cl (single isomer, unassigned) [6-313]", "human EP3 receptor (Homo sapiens)", "pIC50", 8.78),
    ("CCN(CCO)CC(NC(=O)c1cc2c(=O)[nH]c(-c3ccc4ccccc4c3)cn2n1)c1ccccc1 (centres unmarked)", "human EP3 receptor (Homo sapiens)", "pIC50", 8.65),
    ("COc1cc(-c2cn3nc(C(=O)N[C@@H](C)C4CC4)c(C4CC4)c3c(=O)[nH]2)ccc1Cl", "human EP3 receptor (Homo sapiens)", "pIC50", 9.24),
    ("CC[C@H](C)NC(=O)c1nn2cc(-c3ccc(C)c(Cl)c3)[nH]c(=O)c2c1C1CC1", "human EP3 receptor (Homo sapiens)", "pIC50", 8.80),
    ("CC(C)(O)[C@@H](NC(=O)c1nn2cc(-c3ccc(Cl)c(F)c3)[nH]c(=O)c2c1C1CC1(F)F)c1ccc(F)cc1 (some centres unmarked)", "human EP3 receptor (Homo sapiens)", "pIC50", 8.39),
    ("Cc1cc(-c2cn3nc(C(=O)NC4(c5ccc(F)cc5)CN(CC(F)F)C4)c(C(F)(F)F)c3c(=O)[nH]2)ccc1Cl", "human EP3 receptor (Homo sapiens)", "pIC50", 8.51),
]

---

- experimental system: human EP3 receptor (Homo sapiens, UniProt P43115)
- assay explanation: Cellular in vitro assay for determining EP3 receptor activity (human EP3 cell line, sulprostone-stimulated calcium luminescence)
- applied conditions: CHO cells expressing human EP3 and mitochondrial Clytin; antagonist mode, sulprostone at EC50; read-out: EP3 CHO mtCLY ANTAG IC50
pIC50: −log10 of the molar value.
measurement name: pIC50

# compound, measured number
rows = [
    ("COC[C@H](NC(=O)c1nn2cc(-c3ccc(C(F)(F)F)c(C)c3)[nH]c(=O)c2c1C1CC1)c1ccccc1 [6-137]", 8.85),
    ("Cc1ccc(-c2cn3nc(C(=O)N[C@@H](c4ccc(F)cc4)C(C)(C)O)c(C4CC4)c3c(=O)[nH]2)c(F)c1F [6-596]", 8.55),
    ("Cc1ccc(-c2cn3nc(C(=O)N[C@@H](c4ccc(F)cc4)C(C)(C)O)cc3c(=O)[nH]2)cc1F [6-644]", 8.18),
    ("Cc1ccc(-c2cn3nc(C(=O)NC4CC(F)(F)C4)c(C4CC4)c3c(=O)[nH]2)cc1Cl [6-255]", 9.02),
    ("COc1ccc(C(C)NC(=O)c2nn3cc(-c4ccc5ccccc5c4)[nH]c(=O)c3c2C#N)cn1 (stereo not shown) [Example 3-50]", 8.76),
    ("CC[C@@H](COC)NC(=O)c1nn2cc(-c3ccc(Cl)c(C)c3)[nH]c(=O)c2c1C1CC1 [6-327]", 9.32),
    ("O=C(N[C@H](CCO)c1ccc(F)cc1)c1cc2c(=O)[nH]c(-c3cnc4ccccc4c3)cn2n1 [6-11]", 8.33),
    ("Cc1ccnc(C(C)NC(=O)c2nn3cc(-c4cnc5cccc(C)c5c4)[nH]c(=O)c3c2C(C)C)n1 (stereo not shown) [Example 4-47]", 8.51),
    ("O=C(NCCc1cccc(F)c1)c1cc2c(=O)[nH]c(-c3ccc4ccccc4c3)cn2n1 [Example 2-52]", 8.36),
    ("CC(C)c1c(C(=O)N[C@H](CCO)c2ccc(F)cc2)nn2cc(-c3cccc(Cl)c3)[nH]c(=O)c12 [6-682]", 8.96),
]

---

- experimental system: human EP3 receptor (Homo sapiens, UniProt P43115)
- assay explanation: Cellular in vitro assay for determining EP3 receptor activity (human EP3 cell line, sulprostone-stimulated calcium luminescence)
- applied conditions: CHO cells expressing human EP3 and mitochondrial Clytin; antagonist mode, sulprostone at EC50; read-out: EP3 CHO mtCLY ANTAG IC50
pIC50: −log10 of the molar value.

# compound, pIC50
measured = [
    ("COc1ccc(CCNC(=O)c2cc3c(=O)[nH]c(-c4ccc5c(c4)N(C)CCO5)cn3n2)cc1OC", 8.71),
    ("Cc1ccc(-c2cn3nc(C(=O)N[C@@H](c4ccc(F)cc4)C(C)(C)O)c(C(F)(F)F)c3c(=O)[nH]2)cc1F", 8.54),
    ("Cc1cc(-c2cn3nc(C(=O)NCC(O)C(F)(F)F)c(C4CC4)c3c(=O)[nH]2)ccc1Cl (single isomer, unassigned) [6-314]", 9.07),
    ("Cc1cc(-c2cn3nc(C(=O)N[C@H](CCO)c4ccc(F)cc4)cc3c(=O)[nH]2)ccc1C(F)(F)F", 8.38),
    ("Cc1ccc(-c2cn3nc(C(=O)N[C@H](C)c4ccc(F)cc4)c(C(F)(F)F)c3c(=O)[nH]2)cc1C", 8.77),
    ("O=C(NC(c1ccccc1)C(F)F)c1cc2c(=O)[nH]c(-c3ccc4ccccc4c3)cn2n1 (centres unmarked)", 8.97),
    ("CC(C)(O)[C@@H](NC(=O)c1nn2cc(-c3ccc(Cl)c(OC(F)(F)F)c3)[nH]c(=O)c2c1C1CC1)c1ccc(F)cc1", 8.73),
    ("COc1ccc(CCNC(=O)c2cc3c(=O)[nH]c(-c4ccc(C)c(Cl)c4)cn3n2)cc1OC", 8.63),
    ("Cc1ccc(-c2cn3nc(C(=O)N[C@H](CCO)c4ccc(F)cc4)cc3c(=O)[nH]2)cc1F", 8.87),
    ("Cc1ccc(-c2cn3nc(C(=O)NC(c4ccc(C(F)(F)F)cc4)C(C)(C)O)c(C4CC4)c3c(=O)[nH]2)cc1C (single isomer, unassigned) [6-458]", 8.67),
    ("CN(CCNC(=O)c1nn2cc(-c3ccc4ccccc4c3)[nH]c(=O)c2c1C(F)(F)F)C1CC1", 8.38),
    ("Cc1ccc(-c2cn3nc(C(=O)N[C@@H](C)C4CC4)c(C4CC(F)(F)C4)c3c(=O)[nH]2)cc1Cl", 8.80),
    ("COc1ccc(C2(NC(=O)c3cc4c(=O)[nH]c(-c5ccc(C)c(C)c5)cn4n3)CN(C(=O)OC(C)(C)C)C2)cc1", 8.34),
    ("C[C@@H](NC(=O)c1cc2c(=O)[nH]c(-c3ccc4cccc(F)c4c3)cn2n1)c1ccc(F)cc1", 8.84),
    ("Cc1c(C(=O)NCc2cc[nH]n2)nn2c(C)c(-c3ccc4ccccc4c3)[nH]c(=O)c12", 8.15),
    ("O=C(NC1CCN(C2CC2)C1)c1nn2cc(-c3ccc4ccccc4c3)[nH]c(=O)c2c1C(F)(F)F (single isomer, unassigned) [6-500]", 8.17),
    ("Cc1cc(-c2cn3nc(C(=O)NCC(C)(N)C(F)(F)F)c(C4CC4)c3c(=O)[nH]2)ccc1Cl (racemic) [6-319]", 8.93),
    ("Cc1cc(-c2cn3nc(C(=O)NC(c4ccc(F)cc4)C4(O)CC4)c(C(F)(F)F)c3c(=O)[nH]2)ccc1Cl (single isomer, unassigned) [6-211]", 8.93),
    ("CC(NC(=O)c1nn2cc(-c3ccc4ccccc4c3)[nH]c(=O)c2c1C#N)c1ccc(F)cc1 (centres unmarked)", 8.65),
    ("O=C(NC(c1ccc(F)cc1)C1(O)CC1)c1nn2cc(-c3ccc(Cl)c(F)c3)[nH]c(=O)c2c1C1CC1 (single isomer, unassigned) [6-97]", 8.49),
    ("CC(C)(O)[C@@H](NC(=O)c1nn2cc(-c3cc(F)c(Cl)cc3F)[nH]c(=O)c2c1C1CC1)c1ccc(F)cc1", 8.13),
    ("CC(CN1CCOCC1)NC(=O)c1nn2cc(-c3ccc4ccccc4c3)[nH]c(=O)c2c1C(F)(F)F (racemic) [6-522]", 7.77),
    ("CC[C@@H](NC(=O)c1nn2c(C)c(-c3ccc4ccccc4c3)[nH]c(=O)c2c1C)c1ccccc1", 8.66),
]
